experiment.description: Peptide stability in brush border membrane vesicles (BBMVs)
Assay type: in vitro ADME
measurement.parameters: male, intestinal brush border membrane vesicles (BBMVs); rat intestinal BBMVs in MES buffer 50 mM pH 7.4, 37 °C, 2 h, HPLC-MS, triplicate, mean; read-out: peptide recovered at end of incubation with BBMVs
Numbered stars: 1 amine (or outer) side, 2 acyl side, 3 side chain; on linkers, the order of the positions; unused ones are H or OH. Bridge positions count the residues as written; N and C are the ends. Square brackets hold non-standard residues; d marks the D form. Peptide text beside a SMILES is read from it. CO = O=C([*:1])[*:2]; Nlys = NCCCCNCC(=O)O
recorded.endpoint: remaining at 2 h

**Q:** Quick check: remaining at 2 h of CC(C)C[C@@H]1NC(=O)[C@H](C(C)C)NC(=O)[C@H](CC(=O)O)NC(=O)[C@H](CCCNC(=N)N)NC(=O)CN(C(=O)[C@@H](N)Cc2c[nH]c3ccccc23)CCCCNC(=O)NCCCCN(CC(=O)NCC(=O)N[C@H](C(N)=O)[C@@H](C)O)C1=O [c(MyD 4-4)] (H-W[Nlys]RDVL[Nlys]GT-NH2; linker 2-7 via CO) ?
**A:** ~80%
